biological target: Nav 1.7 (Homo sapiens (Human)); test: in-vitro Nav 1.7 PX (IC50); format: cell-based; details: in-vitro Nav 1.7 PX data
Measured attribute: IC50 (nM)

Please review the following examples before continuing.
compound=COc1cc(-c2ccc(C(F)(F)F)nc2)c(F)cc1-n1c(=O)ccc2cc(S(=O)(=O)Nc3ccon3)ccc21 number=120
compound=COc1cc(-c2ccc(Cl)cc2)ccc1-n1c(=O)ccc2cc(S(=O)(=O)Nc3ncc(F)cn3)ccc21 number=40

P. COc1cc(-c2cc(Cl)cnc2OC)c(F)cc1-n1c(=O)ccc2cc(S(=O)(=O)Nc3ncc(F)cn3)ccc21
Q. COc1ccc(-c2cc(F)cc(Cl)c2)cc1-n1c(=O)ccc2cc(S(=O)(=O)Nc3ccon3)ccc21 [Example 859]
Ask | Among P and Q , whose measured IC50 is the smaller figure? // return label of chosen record
Reply | P

* * *

target: Nav 1.7 (Homo sapiens (Human)); assay: in-vitro Nav 1.7 PX (IC50); assay type: cell-based
Measured attribute: IC50 (nM)

compound="COc1cc(-c2cc(F)cc(Cl)c2)c(C#N)cc1-n1c(=O)ccc2cc(S(=O)(=O)Nc3ccon3)ccc21 (atropisomer, axis not shown; (M)) [Example 434]" system_tested="Nav 1.7 (Homo sapiens (Human))" measured_attribute=IC50 number=1840

A. COc1cc(C#CC2CCCC2)c(F)cc1-n1c(=O)cnc2cc(S(=O)(=O)Nc3ccon3)ccc21
B. COc1cc(-c2cccc(Cl)c2)c(C)cc1-n1c(=O)ccc2cc(S(=O)(=O)Nc3ccon3)ccc21 (atropisomer, axis not shown; (M))
Ask | Sorting ascending by IC50, which comes first: A or B ? In your reply, give the label of the chosen option.
Reply | A

* * *

target: Nav 1.7 (Homo sapiens (Human), UniProt Q15858); assay: in-vitro Nav 1.7 PX (IC50); type: cell-based; settings: in-vitro PatchXpress (PX)
Sequence (Q15858 whole entry): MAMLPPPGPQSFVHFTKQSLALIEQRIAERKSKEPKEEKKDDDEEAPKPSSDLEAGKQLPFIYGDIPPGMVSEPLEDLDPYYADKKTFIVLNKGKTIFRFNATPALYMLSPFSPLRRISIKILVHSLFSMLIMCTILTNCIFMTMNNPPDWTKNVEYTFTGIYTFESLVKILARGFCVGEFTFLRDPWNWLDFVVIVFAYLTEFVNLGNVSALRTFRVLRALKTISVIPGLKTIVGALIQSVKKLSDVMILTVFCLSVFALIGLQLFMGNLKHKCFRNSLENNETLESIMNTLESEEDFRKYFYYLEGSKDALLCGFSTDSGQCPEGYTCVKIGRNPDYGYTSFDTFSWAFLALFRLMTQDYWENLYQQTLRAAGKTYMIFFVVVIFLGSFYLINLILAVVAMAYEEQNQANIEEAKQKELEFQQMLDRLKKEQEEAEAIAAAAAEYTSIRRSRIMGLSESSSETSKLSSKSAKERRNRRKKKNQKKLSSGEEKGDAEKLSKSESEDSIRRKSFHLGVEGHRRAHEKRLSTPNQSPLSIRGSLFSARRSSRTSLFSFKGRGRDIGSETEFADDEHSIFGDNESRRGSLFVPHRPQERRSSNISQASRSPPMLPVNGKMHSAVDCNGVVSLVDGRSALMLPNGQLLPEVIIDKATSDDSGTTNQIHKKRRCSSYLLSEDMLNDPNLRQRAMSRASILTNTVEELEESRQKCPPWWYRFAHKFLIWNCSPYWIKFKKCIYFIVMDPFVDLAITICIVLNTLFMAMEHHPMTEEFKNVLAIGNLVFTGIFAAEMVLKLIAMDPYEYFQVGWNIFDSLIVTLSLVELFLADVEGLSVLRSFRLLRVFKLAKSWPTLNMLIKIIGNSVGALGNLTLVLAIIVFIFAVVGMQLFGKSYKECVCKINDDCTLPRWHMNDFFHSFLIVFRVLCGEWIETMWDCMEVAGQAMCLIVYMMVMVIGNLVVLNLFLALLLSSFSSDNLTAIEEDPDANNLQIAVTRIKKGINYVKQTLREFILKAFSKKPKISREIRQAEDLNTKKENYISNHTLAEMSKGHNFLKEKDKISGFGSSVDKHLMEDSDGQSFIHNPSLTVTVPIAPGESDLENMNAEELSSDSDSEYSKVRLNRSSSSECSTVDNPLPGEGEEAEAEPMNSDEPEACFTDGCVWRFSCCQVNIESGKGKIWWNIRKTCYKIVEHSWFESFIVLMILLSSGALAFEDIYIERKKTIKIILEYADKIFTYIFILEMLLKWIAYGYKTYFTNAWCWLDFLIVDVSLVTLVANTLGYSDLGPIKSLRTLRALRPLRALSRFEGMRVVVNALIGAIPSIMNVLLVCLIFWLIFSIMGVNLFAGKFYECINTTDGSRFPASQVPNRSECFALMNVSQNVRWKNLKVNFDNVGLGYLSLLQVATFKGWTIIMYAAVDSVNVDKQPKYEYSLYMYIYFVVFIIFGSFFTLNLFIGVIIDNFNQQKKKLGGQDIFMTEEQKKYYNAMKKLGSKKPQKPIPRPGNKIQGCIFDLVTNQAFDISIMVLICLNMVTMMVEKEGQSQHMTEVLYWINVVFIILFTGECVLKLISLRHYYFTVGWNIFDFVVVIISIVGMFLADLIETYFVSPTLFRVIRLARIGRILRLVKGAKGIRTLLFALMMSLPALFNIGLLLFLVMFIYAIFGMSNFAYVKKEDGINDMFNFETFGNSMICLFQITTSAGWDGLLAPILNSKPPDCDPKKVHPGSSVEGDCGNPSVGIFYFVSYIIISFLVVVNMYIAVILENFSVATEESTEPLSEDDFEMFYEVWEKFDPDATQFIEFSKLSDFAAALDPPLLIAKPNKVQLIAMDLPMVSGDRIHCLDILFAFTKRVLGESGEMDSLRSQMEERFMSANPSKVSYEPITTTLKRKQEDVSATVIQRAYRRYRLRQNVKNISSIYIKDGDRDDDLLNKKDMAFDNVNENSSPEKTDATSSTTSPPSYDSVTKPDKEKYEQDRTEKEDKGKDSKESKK
pIC50: −log10 of the molar value.
Measured attribute: pIC50

Sample records with pIC50:
compound="COc1cc(-c2cc(Cl)cc(C#N)c2)c(F)cc1-n1c(=O)ccc2cc(S(=O)(=O)Nc3ccon3)ccc21 (atropisomer, axis not shown; (M)) [Example 519]" number=7.80
compound="COc1cc(-c2cc(F)cc(Cl)c2)ccc1-n1c(=O)ccc2cc(S(=O)(=O)Nc3cccnn3)ccc21 (atropisomer, axis not shown; (M)) [Example 481]" number=5.51
compound=COc1cc(-c2ccc(C)nc2)c(F)cc1-n1c(=O)ccc2cc(S(=O)(=O)Nc3ccon3)ccc21 number=5.55
compound=COc1cc(-c2cccnc2)c(F)cc1-n1c(=O)ccc2cc(S(=O)(=O)Nc3ccon3)ccc21 number=5.37
compound="COc1cc(-c2cc(F)cc(F)c2F)c(F)cc1-n1c(=O)ccc2cc(S(=O)(=O)Nc3ccon3)ccc21 (atropisomer, axis not shown; (P)) [Example 514]" number=7.74

A. COc1cc(-c2cc(C)cc(C#N)c2)c(F)cc1-n1c(=O)ccc2cc(S(=O)(=O)Nc3ccon3)ccc21 (atropisomer, axis not shown; (P))
B. COc1cc(-c2cccc(C#N)c2)c(F)cc1-n1c(=O)ccc2cc(S(=O)(=O)Nc3ccon3)ccc21 (atropisomer, axis not shown; (M)) [Example 499]
C. COc1cc(-c2cccc(C)c2)c(F)cc1-n1c(=O)ccc2cc(S(=O)(=O)Nc3ccon3)ccc21 (atropisomer, axis not shown; (M)) [Example 523]
D. COc1cc(-c2cccc(C(F)(F)F)c2)ccc1-n1c(=O)ccc2cc(S(=O)(=O)Nc3cccnn3)ccc21 (atropisomer, axis not shown; (P)) [Example 369]
E. COc1nc(-c2cccc(F)c2)c(Cl)cc1-n1c(=O)ccc2cc(S(=O)(=O)Nc3ccon3)ccc21
Ask | Order the records so the highest pIC50 appears first and the lowest last. Lab note: final answer is the ordered label list.
Reply | D, A, E, C, B
(D: 7.80, A: 7.51, E: 6.77, C: 5.32, B: 4.60)
